System: PC-3 prostate
Test: NCI-60 one-dose screen, 48 h (100 = growth as untreated, 0 = no growth, -100 = all killed)
Conditions: 10 µM unless noted
About 83,000 compounds went through this panel and 20% of them were active in at least one assay; those are over-represented in the sample as a whole.
Label 1 for high-side growth (at or above 70%) and -1 for low-side growth (below it).

O=C(Nn1c(NCC(=O)N2c3ccccc3Sc3ccccc32)nnc1-c1ccc(O)cc1)c1ccccc1; 1
COc1ccc(-c2nc3sc(-c4ccccc4)cn3n2)cc1; -1
CCOC(=O)c1nc(Nc2ccc(C(C)=O)cc2)sc1C; 1
C=C1C(=O)O[C@H]2[C@H]1CC/C(COC(=O)CSCC(=O)OC/C1=C/CC[C@@]3(C)O[C@H]3[C@H]3OC(=O)C(=C)[C@@H]3CC1)=C\CC[C@@]1(C)O[C@@H]21; -1
CCCCn1c(=O)c(-c2cc(-c3ccc(Cl)cc3)nc(-c3ccc(Cl)cc3)c2)cc2cc(C)ccc21; 1
CCOC(=O)c1cnn2c3ccccc3n(S(=O)(=O)c3ccc(OC)cc3)c12; -1
O=C(Nc1ccc(OS(=O)(=O)c2ccc(F)cc2)cc1)c1ccc(Cl)cc1; 1

Does the molecule `Cc1ccc2nc(NC(=O)CSc3nc(Cl)c(C#N)c(-c4ccccc4)n3)sc2c1` have recorded growth that is 70% or more?
1
